System: H-EMC-SS (Chondrosarcoma)
Assay: Bliss excess, mean over the matrix (fraction); higher = more synergy;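 note: after 72 h of two-drug dosing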
VALUE KIND: Bliss excess
Give bare numbers.

COMPOUND | EXPERIMENTAL SYSTEM | Bliss excess
C=CCn1c(=O)c2cnc(Nc3ccc(N4CCN(C)CC4)cc3)nc2n1-c1cccc(C(C)(C)O)n1 [AZD1775] + C[C@@H]1COCCN1C2=NC(=NC(=C2)C3(CC3)[S@](=N)(=O)C)C4=C5C=CNC5=NC=C4 [AZD6738] (first compound max 1 µM, partner max 10 µM) | H-EMC-SS (Chondrosarcoma) | -0.0843
CCN(CCO)CCCOc1ccc2c(Nc3cc(CC(=O)Nc4cccc(F)c4)[nH]n3)ncnc2c1 [AZD2811] + O=C(c1cc(Cc2n[nH]c(=O)c3ccccc23)ccc1F)N1CCN(C(=O)C2CC2)CC1 [Olaparib] (first compound max 1 µM, 7x7, partner max 10 µM) | H-EMC-SS (Chondrosarcoma) | -0.0353

GET /values?item= CN(CCO)CC[C@H](CSc1ccccc1)Nc1ccc(S(=O)(=O)NC(=O)c2ccc(N3CCC([C@@H](O)c4ccccc4-c4ccc(Cl)cc4)CC3)cc2)cc1S(=O)(=O)C(F)(F)F [AZD4320] + CC(=O)O[C@H]1C(=O)[C@@]2(C)[C@H]([C@H](OC(=O)c3ccccc3)[C@]3(O)C[C@H](OC(=O)[C@H](O)[C@@H](NC(=O)c4ccccc4)c4ccccc4)C(C)=C1C3(C)C)[C@]1(OC(C)=O)CO[C@@H]1C[C@@H]2O [Paclitaxel] (first compound max 1 µM, 7x7, partner max 3 µM) &system= H-EMC-SS (Chondrosarcoma) returns Bliss excess: 0.0785

---

System: NB7 (Neuroblastoma)
Assay: Bliss excess, mean over the matrix (fraction); higher = more synergy
VALUE KIND: Bliss excess
One number for each entry.

See these solved cases before continuing.
MOLECULE | ENDPOINT VALUE
COc1cccc2c1C(=O)c1c(O)c3c(c(O)c1C2=O)C[C@@](O)(C(=O)CO)C[C@@H]3O[C@H]1C[C@H](N)[C@H](O)[C@H](C)O1 [Doxorubicin] + Cc1cc2ncnn2cc1Nc1ncc2c(n1)n(C1CCOCC1)c(=O)n2C [AZD7648] (first compound max 1 µM, 7x7, partner max 10 µM) | 0.0742
CS(=O)(=O)CCNCc1ccc(-c2ccc3ncnc(Nc4ccc(OCc5cccc(F)c5)c(Cl)c4)c3c2)o1 [Lapatinib] + Cn1cnc2c(F)c(Nc3ccc(Br)cc3Cl)c(C(=O)NOCCO)cc21 [Selumetinib] (first compound max 10 µM, 7x7, partner max 10 µM) | -0.0408

Attention now shifts to the item below.
GET /values?item= NC1(C(=O)N[C@@H](CCO)c2ccc(Cl)cc2)CCN(c2ncnc3[nH]ccc23)CC1 [Capivasertib] + COc1nnc2ccc(N3CCC(c4ccc(OCCN5CCN(C)C(=O)[C@H]5C)cc4)CC3)nn12 [AZD5153] (first compound max 10 µM, 7x7, partner max 1 µM) &system= NB7 (Neuroblastoma) returns Bliss excess: -0.0483

---

System: SCC-9 (Oral Cavity Carcinoma)
Assay: Bliss excess, mean over the matrix (fraction); higher = more synergy
Consider the following compounds; for each one, report its Bliss excess.
Answers are plain numbers.

See these solved cases before continuing.
COMPOUND | EXPERIMENTAL SYSTEM | ENDPOINT VALUE
CS(=O)(=O)CCNCc1ccc(-c2ccc3ncnc(Nc4ccc(OCc5cccc(F)c5)c(Cl)c4)c3c2)o1 [Lapatinib] + NC1(c2ccc(-c3nc4ccn5c(=O)[nH]nc5c4cc3-c3ccccc3)cc2)CCC1 [MK-2206] (first compound max 10 µM, 7x7, partner max 10 µM) | SCC-9 (Oral Cavity Carcinoma) | 0.0038
CN(CCO)CC[C@H](CSc1ccccc1)Nc1ccc(S(=O)(=O)NC(=O)c2ccc(N3CCC([C@@H](O)c4ccccc4-c4ccc(Cl)cc4)CC3)cc2)cc1S(=O)(=O)C(F)(F)F [AZD4320] + CN(C)CCCOc1ccc(-c2ccc3ncc4c(c3c2)n(C2CCOCC2)c(=O)n4C)cn1 [AZD0156] (first compound max 1 µM, 7x7, partner max 1 µM) | SCC-9 (Oral Cavity Carcinoma) | -0.0423
COc1nnc2ccc(N3CCC(c4ccc(OCCN5CCN(C)C(=O)[C@H]5C)cc4)CC3)nn12 [AZD5153] + CCN(CCO)CCCOc1ccc2c(Nc3cc(CC(=O)Nc4cccc(F)c4)[nH]n3)ncnc2c1 [AZD2811] (first compound max 1 µM, 7x7, partner max 1 µM) | SCC-9 (Oral Cavity Carcinoma) | -0.0476

State recorded Bliss excess for all listed compounds.
1. C[C@@H](c1ccc2nccn2c1)n1nnc2ncc(-c3cnn(C)c3)nc21 [Savolitinib] + CC1(C)CCC(CN2CCN(c3ccc(C(=O)NS(=O)(=O)c4ccc(NCC5CCOCC5)c([N+](=O)[O-])c4)c(Oc4cnc5[nH]ccc5c4)c3)CC2)=C(c2ccc(Cl)cc2)C1 [Venetoclax] (first compound max 1 µM, 7x7, partner max 1 µM)
2. Cc1c2c(nn1C)CSCc1cc(n(C)n1)CSc1cc(c3ccccc3c1)OCCCc1c(C(=O)O)n(C)c3c-2c(Cl)ccc13 [AZD5991] + C=CCn1c(=O)c2cnc(Nc3ccc(N4CCN(C)CC4)cc3)nc2n1-c1cccc(C(C)(C)O)n1 [AZD1775] (first compound max 1 µM, partner max 1 µM)
3. COc1cc2ncnc(Nc3ccc(F)c(Cl)c3)c2cc1OCCCN1CCOCC1 [Gefitinib] + CC(C)n1c(=O)n(C)c2cnc3cc(F)c(-c4ccc(OCCCN5CCCCC5)nc4)cc3c21 [AZD1390] (first compound max 10 µM, 7x7, partner max 0.3 µM)
4. CCc1c2c(nc3ccc(O)cc13)-c1cc3c(c(=O)n1C2)COC(=O)[C@]3(O)CC [SN-38] + CN(C)CCCOc1ccc(-c2ccc3ncc4c(c3c2)n(C2CCOCC2)c(=O)n4C)cn1 [AZD0156] (first compound max 0.3 µM, 7x7, partner max 1 µM)

1. -0.0328
2. -0.0123
3. -0.0309
4. 0.0484

---

Tested on: EW-3 (Ewing's Sarcoma)
Assay: Bliss excess, mean over the matrix (fraction); higher = more synergy
VALUE KIND: Bliss excess
One number for each entry.

COMPOUND | Bliss excess
COc1cccc(OCCCN)c1-c1cc(Nc2cnc(C#N)cn2)n[nH]1 [Prexasertib] + O=C(c1cc(Cc2n[nH]c(=O)c3ccccc23)ccc1F)N1CCN(C(=O)C2CC2)CC1 [Olaparib] (first compound max 1 µM, 7x7, partner max 10 µM) | -0.0378

Attention now shifts to the item below.
GET /values?item= COc1cc2ncnc(Nc3ccc(F)c(Cl)c3)c2cc1OCCCN1CCOCC1 [Gefitinib] + CC(C)n1c(=O)n(C)c2cnc3cc(F)c(-c4ccc(OCCCN5CCCCC5)nc4)cc3c21 [AZD1390] (first compound max 10 µM, 7x7, partner max 0.3 µM) &system= EW-3 (Ewing's Sarcoma) returns Bliss excess: -0.0347

---

System: ASH-3 (Thyroid Gland Carcinoma)
Test: Bliss excess, mean over the matrix (fraction); higher = more synergy
Consider the following compounds; for each one, report its Bliss excess.
Give bare numbers.

See these solved cases before continuing.
COMPOUND | Bliss excess
CC(=O)Nc1cccc(-n2c(=O)n(C3CC3)c(=O)c3c(Nc4ccc(I)cc4F)n(C)c(=O)c(C)c32)c1 [Trametinib] + Cc1nc(-c2cn3c(n2)-c2ccc(-c4cnn(C(C)(C)C(N)=O)c4)cc2OCC3)n(C(C)C)n1 [Taselisib] (first compound max 1 µM, 7x7, partner max 10 µM) | 0.127
COc1nnc2ccc(N3CCC(c4ccc(OCCN5CCN(C)C(=O)[C@H]5C)cc4)CC3)nn12 [AZD5153] + CN(CC[C@H](CSC1=CC=CC=C1)NC2=C(C=C(C=C2)S(=O)(=O)NC(=O)C3=CC=C(C=C3)N4CCC(CC4)[C@H](C5=CC=CC=C5C6=CC=C(C=C6)Cl)O)S(=O)(=O)C(F)(F)F)CCO [AZD4320] (first compound max 1 µM, 7x7, partner max 1 µM) | 0.107
COc1nnc2ccc(N3CCC(c4ccc(OCCN5CCN(C)C(=O)[C@H]5C)cc4)CC3)nn12 [AZD5153] + CCN(CCO)CCCOc1ccc2c(Nc3cc(CC(=O)Nc4cccc(F)c4)[nH]n3)ncnc2c1 [AZD2811] (first compound max 1 µM, 7x7, partner max 1 µM) | -0.0284
Cc1cc2ncnn2cc1Nc1ncc2c(n1)n(C1CCOCC1)c(=O)n2C [AZD7648] + C[C@@H]1COCCN1C2=NC(=NC(=C2)C3(CC3)[S@](=N)(=O)C)C4=C5C=CNC5=NC=C4 [AZD6738] (first compound max 10 µM, 7x7, partner max 10 µM) | 0.0459
Cc1cc2ncnn2cc1Nc1ncc2c(n1)n(C1CCOCC1)c(=O)n2C [AZD7648] + C=CCn1c(=O)c2cnc(Nc3ccc(N4CCN(C)CC4)cc3)nc2n1-c1cccc(C(C)(C)O)n1 [AZD1775] (first compound max 10 µM, partner max 1 µM) | -0.0006
Cc1nc(Nc2ncc(C(=O)Nc3c(C)cccc3Cl)s2)cc(N2CCN(CCO)CC2)n1 [Dasatinib] + CC(=O)Nc1cccc(-n2c(=O)n(C3CC3)c(=O)c3c(Nc4ccc(I)cc4F)n(C)c(=O)c(C)c32)c1 [Trametinib] (first compound max 2 µM, 7x7, partner max 1 µM) | 0.0994

Attention now shifts to the item below.
# Bliss excess of CS(=O)(=O)CCNCc1ccc(-c2ccc3ncnc(Nc4ccc(OCc5cccc(F)c5)c(Cl)c4)c3c2)o1 [Lapatinib] + C[C@@H](Oc1cc(-c2cnn(C3CCNCC3)c2)cnc1N)c1c(Cl)ccc(F)c1Cl [Crizotinib] (first compound max 10 µM, 7x7, partner max 10 µM) = -0.0207
